Data origin: paper PMC6326535

# Test system: SaeRS TCS
# experimentalDetails: microbe, parasite or virus in culture
# Assay type: cell-based, Staphylococcus aureus USA300
# reportedConditions: Staphylococcus aureus, USA300, 8 h, read-out: IC50 against the SaeRS GFP reporter
In this section we review reported IC50 values for a set of compounds.
experimentalReadout: IC50 (µM)

compound="C=C(C)C(O)CC/C(C)=C/Cc1c(O)ccc(C(=O)CC(O)c2ccc(O)cc2)c1O (centres unmarked) [PM-56]" measurementtarget="SaeRS TCS" experimentalreadout=IC50 reportedresult=4.3
compound="C=C(C)C(O)CC/C(C)=C/Cc1c(O)ccc(C(=O)/C=C/c2ccc(O)cc2)c1O (centres unmarked) [Compound 1, Xanthoangelol B]" measurementtarget="SaeRS TCS" experimentalreadout=IC50 reportedresult=2.1

----------
# measurementTarget: kinase domain of SaeS (Staphylococcus aureus, UniProt Q840P7)
# Sequence (Q840P7 118-351): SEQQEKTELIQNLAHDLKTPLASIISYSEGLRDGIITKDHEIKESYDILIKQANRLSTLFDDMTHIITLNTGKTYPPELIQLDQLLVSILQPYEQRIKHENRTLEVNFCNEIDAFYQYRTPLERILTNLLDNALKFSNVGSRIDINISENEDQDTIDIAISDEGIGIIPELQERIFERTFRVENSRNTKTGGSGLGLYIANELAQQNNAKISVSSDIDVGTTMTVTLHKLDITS
experimentalReadout: Kd

compound="C=C(C)C(O)CC/C(C)=C/Cc1c(O)ccc(C(=O)/C=C/c2ccc(O)cc2)c1O (centres unmarked)" measurementtarget="kinase domain of SaeS (Staphylococcus aureus, UniProt Q840P7)" experimentalreadout=Kd reportedresult="40 µM"
compound="C=C(C)C(O)CC/C(C)=C/Cc1c(O)ccc(C(=O)CC(O)c2ccc(O)cc2)c1O (centres unmarked)" measurementtarget="kinase domain of SaeS (Staphylococcus aureus, UniProt Q840P7)" experimentalreadout=Kd reportedresult="6.8 µM"
